Overview of reported Emax across a group of molecules:
test-system: ΔF508-CFTR (Homo sapiens, UniProt P13569, DEL508-508)
Construct: expressed in transfected cells
Sequence (P13569 with tags, fused parts or gaps DEL508-508): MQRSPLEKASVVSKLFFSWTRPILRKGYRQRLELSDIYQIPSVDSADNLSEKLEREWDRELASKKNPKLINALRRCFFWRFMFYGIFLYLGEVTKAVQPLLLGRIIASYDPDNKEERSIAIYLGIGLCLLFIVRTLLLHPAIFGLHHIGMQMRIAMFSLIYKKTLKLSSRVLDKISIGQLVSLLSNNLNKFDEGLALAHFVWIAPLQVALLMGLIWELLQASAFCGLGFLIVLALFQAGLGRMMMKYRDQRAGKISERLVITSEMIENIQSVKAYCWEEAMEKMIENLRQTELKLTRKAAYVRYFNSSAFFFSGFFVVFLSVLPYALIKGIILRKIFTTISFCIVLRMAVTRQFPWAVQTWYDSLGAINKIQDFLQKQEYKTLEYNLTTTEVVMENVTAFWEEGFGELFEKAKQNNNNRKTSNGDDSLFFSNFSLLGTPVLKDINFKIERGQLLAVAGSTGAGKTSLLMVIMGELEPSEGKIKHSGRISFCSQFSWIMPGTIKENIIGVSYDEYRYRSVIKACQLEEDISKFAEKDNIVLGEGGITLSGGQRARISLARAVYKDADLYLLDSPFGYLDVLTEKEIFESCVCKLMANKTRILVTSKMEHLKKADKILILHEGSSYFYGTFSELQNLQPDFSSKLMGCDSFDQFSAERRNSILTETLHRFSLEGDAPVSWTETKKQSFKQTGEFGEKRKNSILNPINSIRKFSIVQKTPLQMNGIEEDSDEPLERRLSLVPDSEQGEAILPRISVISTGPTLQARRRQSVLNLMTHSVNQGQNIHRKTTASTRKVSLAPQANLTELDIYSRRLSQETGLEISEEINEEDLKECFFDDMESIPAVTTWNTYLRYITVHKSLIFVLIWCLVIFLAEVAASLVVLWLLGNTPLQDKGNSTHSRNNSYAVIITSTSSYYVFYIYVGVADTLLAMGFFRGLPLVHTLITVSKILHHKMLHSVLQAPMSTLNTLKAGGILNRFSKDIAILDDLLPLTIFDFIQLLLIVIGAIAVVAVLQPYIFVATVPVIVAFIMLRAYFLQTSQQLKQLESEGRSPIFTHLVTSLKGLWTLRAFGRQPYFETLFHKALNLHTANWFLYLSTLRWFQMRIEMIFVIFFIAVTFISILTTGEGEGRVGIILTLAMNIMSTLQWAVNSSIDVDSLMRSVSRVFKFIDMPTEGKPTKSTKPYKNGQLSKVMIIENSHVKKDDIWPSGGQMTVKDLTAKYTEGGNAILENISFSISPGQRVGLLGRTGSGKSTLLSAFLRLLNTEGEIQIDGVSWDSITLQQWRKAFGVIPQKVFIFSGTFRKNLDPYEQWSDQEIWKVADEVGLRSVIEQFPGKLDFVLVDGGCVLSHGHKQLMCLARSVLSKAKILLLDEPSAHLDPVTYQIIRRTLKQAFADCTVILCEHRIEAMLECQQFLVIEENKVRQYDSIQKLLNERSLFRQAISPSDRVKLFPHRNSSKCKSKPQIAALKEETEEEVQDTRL
method-notes: ΔF508-CFTR correction, membrane potential optical (FRET/VIPR) assay
Format: cell-based
experimental-conditions: NIH3T3 mouse fibroblasts stably expressing ΔF508-CFTR; read-out: % Efficacy

Here are 5 molecules together with their reported answers.
query-smiles	reported-endpoint	reported-measurement
COc1ncccc1-c1cc(C)cc(NC(=O)C2(c3ccc4c(c3)OC(F)(F)O4)CC2)n1	Emax	> 100%
Cc1ccc(NC(=O)C2(c3ccc4c(c3)OC(F)(F)O4)CC2)nc1-c1c[nH]c(=O)c(N)c1	Emax	> 100%
Cc1cc(NC(=O)C2(c3ccc4c(c3)CCO4)CC2)nc(-c2ccc(=O)[nH]c2)c1	Emax	50 to 100%
Cc1cc(NC(=O)C2(c3ccc4c(c3)OC(F)(F)O4)CC2)nc(-c2ccc(=O)[nH]c2C)c1	Emax	> 100%
Cc1cc(NC(=O)C2(c3ccc4c(c3)OCC4)CC2)nc(-c2ccc(=O)[nH]c2)c1	Emax	50 to 100%

Here's the next entry for you.
**Q:** Suppose we examine the molecule Cc1ccc(NC(=O)C2(c3ccc4c(c3)OC(F)(F)O4)CC2)nc1-c1ccn(CCO)c(=O)c1 ; what Emax value has been reported?
**A:** > 100%
